Assay: RP, Thermo Scientific Hypersil GOLD, 1.9 µm, 40 °C, 0.4 mL/min; A: water + 0.1% formic acid, pH 3; B: acetonitrile + 0.1% formic acid, pH 3; gradient (min/%B) 0/0 1/0 11/100 13/100 14/0 16/0
Settings: stereoisomer not certain
In this scheme, each record receives a class according to its LC retention time; the ranges are lower segment = under 0.7 min, middle segment = from 0.7 min up to 4 min, upper segment = 4 min and over

# count of solved cases: 10
- Compound: "COC1OC(CO)C(O)C(O)C1O (centres undefined) [METHYL GALACTOSIDE]"
  Class Assignment: "middle segment"
- Compound: "OCCc1c[nH]c2ccccc12"
  Class Assignment: "upper segment"
- Compound: "Nc1ccn(C2OC(CO)C(O)C2O)c(=O)n1 (centres undefined)"
  Class Assignment: "middle segment"
- Compound: "COc1cc(CC(=O)O)ccc1O [HOMOVANILLATE]"
  Class Assignment: "upper segment"
- Compound: "C[Se]CCC(N)C(=O)O (centres undefined)"
  Class Assignment: "middle segment"
- Compound: "NC(=O)C1CCCN1C(=O)C(Cc1cnc[nH]1)NC(=O)C1CCC(=O)N1 (centres undefined)"
  Class Assignment: "middle segment"
- Compound: "CC(CCC(=O)O)C1CCC2C3C(O)CC4CC(O)CCC4(C)C3CC(O)C12C (centres undefined) [CHOLATE]"
  Class Assignment: "upper segment"
- Compound: "O=c1[nH]cnc2nc[nH]c12"
  Class Assignment: "middle segment"
- Compound: "NCCOP(=O)(O)OP(=O)(O)OCC1OC(n2ccc(N)nc2=O)C(O)C1O (centres undefined)"
  Class Assignment: "lower segment"
- Compound: "O=C(O)c1cccc[n+]1[O-] [Picolinic acid N-oxide]"
  Class Assignment: "middle segment"

Exercise: Categorize the following entry: CCN(CC)CCCC(C)Nc1c2ccc(Cl)cc2nc2ccc(OC)cc12 (centres undefined)
Solution: upper segment

Exercise: Categorize the following entry: O=P(O)(O)OCC1OC(O)(CO)C(O)C1O (centres undefined) [FRUCTOSE 6-PHOSPHATE]
Solution: lower segment

Exercise: Categorize the following entry: OCC(O)C(O)C(O)CO (centres undefined)
Solution: lower segment

Exercise: Categorize the following entry: CCCCCCCCCCCCCCCCCCCCCCC(=O)[O-] [TRICOSANOATE]
Solution: upper segment
